- measured target: Paired box protein Pax-6 (Homo sapiens) (UniProt P26367)
- Sequence (P26367 whole entry, looked up): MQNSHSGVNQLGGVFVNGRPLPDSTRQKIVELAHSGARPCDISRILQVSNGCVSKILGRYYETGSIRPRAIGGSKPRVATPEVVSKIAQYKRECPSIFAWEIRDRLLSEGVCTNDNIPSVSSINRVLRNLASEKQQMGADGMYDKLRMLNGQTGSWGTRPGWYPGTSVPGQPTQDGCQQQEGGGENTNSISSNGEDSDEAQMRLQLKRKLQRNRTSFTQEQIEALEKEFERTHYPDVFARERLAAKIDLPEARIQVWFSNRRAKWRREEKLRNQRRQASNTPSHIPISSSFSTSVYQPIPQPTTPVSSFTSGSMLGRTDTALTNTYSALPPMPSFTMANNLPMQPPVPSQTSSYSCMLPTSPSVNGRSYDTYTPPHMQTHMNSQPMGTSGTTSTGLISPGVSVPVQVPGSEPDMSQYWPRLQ
- measurement description: ATG_Pax6_CIS: Attagene CIS-FACTORIAL HepG2 Assay for human Paired Box 6 (PAX6) (AID 2282956)
- condition parameters: HepG2 CIS-FACTORIAL PAX6 reporter transcription, RNA readout; actives raise or lower the signal
- Experimental: ATG_CIS is a cell-based, multiplexed-readout assay that uses HepG2, a human liver cell line, with measurements taken at 24 hours after chemical dosing in a 24-well plate.ATG_Pax6_CIS is one of 52 assay component(s) measured or calculated from the ATG_CIS assay. […] This assay endpoint, ATG_Pax6_CIS, was analyzed with bidirectional fitting relative to DMSO as the negative control and baseline of activity. […]
Active and inactive are the calls of the source. How the source made its calls: active means hit-call score of the fitted dose curve at least 0.9, where 1 is the maximum; inactive means score below 0.9.
Respond only with the outcome that fits, drawn from 1 (active), 0 (inactive)

Could you check what this test reported for COC(=O)c1cccc(C(=O)OC)c1 ? 0

Could you check what this test reported for CCC(C)COC(=O)CC(C)C (stereo not given) ? 0

Could you check what this test reported for C[C@H](CCC(=O)O)[C@H]1CC[C@H]2[C@@H]3CC[C@@H]4C[C@H](O)CC[C@]4(C)[C@H]3CC[C@]12C ? 1

Could you check what this test reported for O=c1cc(-c2ccc(O)cc2)oc2cc(O)cc(O)c12 ? 1

Could you check what this test reported for CCCCCCCCCCCCCC(=O)OCC ? 0

Could you check what this test reported for CCC(=O)OCC=Cc1ccccc1 ? 0

Could you check what this test reported for O=S(=O)(O)CCCN1CCOCC1 ? 0

---

- measurement description: ACEA_ER_AUC_viability: ACEA Biosciences xCELLigence Real-Time Cell Analysis on Estrogen Receptor Agonism for Viability (AID 2283782);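 further: continuous compound exposure with impedance area under curve over 80 h; hit means loss of impedance signal meaning reduced cell growth or viability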
Records with an inconclusive call do not appear. The source made the active and inactive calls. The calls were made as follows: active = hit-call score of the fitted dose curve at least 0.9, where 1 is the maximum; inconclusive = response in the unintended direction; inactive = score below 0.9.
Respond only with the outcome that fits, drawn from active, inactive

Could you check what this test reported for CC1=CC(O)CC(C)(C)C1 (stereo not drawn) ? active

Could you check what this test reported for C=C(C)C(=O)OCCC[Si](OC)(OC)OC ? inactive

Could you check what this test reported for CC=CC(=O)C1=C(C)C=CCC1(C)C ? inactive

Could you check what this test reported for CCCCC1CCCCC(=O)O1 (stereo not drawn) ? inactive

Could you check what this test reported for COC(=O)C(C)Oc1ccc(Oc2ncc(C(F)(F)F)cc2Cl)cc1 (stereo not drawn) ? inactive

Could you check what this test reported for CN(C)CCCNCCCN(C)C ? active

Could you check what this test reported for CCCCCc1cccc(=O)o1 ? inactive

Could you check what this test reported for CC(=O)CCc1ccc(O)cc1 ? inactive

---

- measurement description: ATG_SREBP_CIS: Attagene CIS-FACTORIAL HepG2 Assay for human Sterol Regulatory Element Binding (SREBP) (AID 2282962)
- condition parameters: HepG2 Attagene cis-factorial SREBP reporter, mRNA; actives raise or lower the signal
- Protocol: ATG_CIS is a cell-based, multiplexed-readout assay that uses HepG2, a human liver cell line, with measurements taken at 24 hours after chemical dosing in a 24-well plate.ATG_SREBP_CIS is one of 52 assay component(s) measured or calculated from the ATG_CIS assay. […] This assay endpoint, ATG_SREBP_CIS, was analyzed with bidirectional fitting relative to DMSO as the negative control and baseline of activity. […]
Active and inactive are the calls of the source. How the source made its calls: active means hit-call score of the fitted dose curve at least 0.9, where 1 is the maximum; inactive means score below 0.9.
Respond only with the outcome that fits, drawn from 1 = active, 0 = inactive

Some entries whose results are on file:
{"molecule": "ClCCOCCOCCCl", "discrete label": 0}
{"molecule": "C=CCCCCCCCCC(=O)OCC", "discrete label": 0}
{"molecule": "[Na+]", "discrete label": 0}
{"molecule": "CCOCC(C)O (configuration not stated)", "discrete label": 0}
{"molecule": "CC(CO)c1ccccc1 (configuration not stated)", "discrete label": 0}

Could you check what this test reported for C[C@H](CCC(=O)O)[C@H]1CC[C@H]2[C@@H]3CC[C@@H]4C[C@H](O)CC[C@]4(C)[C@H]3CC[C@]12C ? 0

Could you check what this test reported for CC=CC(=O)C1=C(C)C=CCC1(C)C ? 0

Could you check what this test reported for C1CCCNCC1 ? 0

Could you check what this test reported for C=C1CC[C@H]2O[C@]2(C)CC[C@@H]2[C@@H]1CC2(C)C ? 0

Could you check what this test reported for C=C(C)C(N)=O ? 0

Could you check what this test reported for c1coc(CNc2ncnc3nc[nH]c23)c1 ? 0

Could you check what this test reported for CC1=CC(C)C(C=O)C(C)C1 (configuration not stated) (tested in a mixture with another compound) ? 0

---

- Read-out: Interleukin-8 (IL8), CXCL8 (gene 3576)
- measurement description: BSK_SAg_IL8: BioMAP Diversity Plus: SAg Assay for Interleukin-8 (IL8) Biomarker Activity (AID 2283094)
- condition parameters: primary human HUVEC with PBMC; actives raise or lower the signal
Activity calls are given as the source filed them. How the source made its calls: active means hit-call score of the fitted dose curve at least 0.9, where 1 is the maximum; inactive means score below 0.9.
Respond only with the outcome that fits, drawn from TRUE for active, FALSE for inactive

{"molecule smiles": "COc1ccccc1NC(=O)CC(C)=O", "discrete label": "FALSE"}

Now let's try a different one.
Could you check what this test reported for CC1(C)[C@H](C=C(Cl)Cl)[C@H]1C(=O)OCc1cccc(Oc2ccccc2)c1 ? FALSE

---

- Read-out: E-selectin (Homo sapiens) (UniProt P16581)
- Sequence (P16581 whole entry, looked up): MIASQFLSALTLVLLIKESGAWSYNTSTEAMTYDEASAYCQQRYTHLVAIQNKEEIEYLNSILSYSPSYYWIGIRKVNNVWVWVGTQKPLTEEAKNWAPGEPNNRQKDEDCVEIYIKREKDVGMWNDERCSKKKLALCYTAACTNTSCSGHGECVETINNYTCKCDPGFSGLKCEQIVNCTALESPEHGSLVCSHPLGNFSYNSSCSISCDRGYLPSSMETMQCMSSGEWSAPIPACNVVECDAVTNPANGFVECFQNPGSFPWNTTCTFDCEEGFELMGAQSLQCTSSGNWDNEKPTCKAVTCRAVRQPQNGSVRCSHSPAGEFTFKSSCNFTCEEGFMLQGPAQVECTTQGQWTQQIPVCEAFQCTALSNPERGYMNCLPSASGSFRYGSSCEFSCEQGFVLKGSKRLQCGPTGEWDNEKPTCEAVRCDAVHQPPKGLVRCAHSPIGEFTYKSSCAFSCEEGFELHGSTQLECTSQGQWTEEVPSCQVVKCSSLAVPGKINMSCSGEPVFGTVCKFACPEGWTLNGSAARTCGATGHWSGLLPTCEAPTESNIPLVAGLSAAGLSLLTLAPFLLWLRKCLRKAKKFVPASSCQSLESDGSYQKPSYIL
- measurement description: BSK_SAg_Eselectin: BioMAP Diversity Plus: SAg Assay for Eselectin Biomarker Activity (AID 2283091)
- condition parameters: primary human HUVEC with PBMC; actives raise or lower the signal
Calls of active or inactive are those of the source. Rule for the calls: active = hit-call score of the fitted dose curve at least 0.9, where 1 is the maximum; inactive = score below 0.9.
recorded endpoint: outcome

{"compound": "c1ccc(OCCOc2ccccc2)cc1", "data value": "inactive"}
{"compound": "CC(=O)c1ccc(C)cc1", "data value": "inactive"}
{"compound": "CCCCCCCC1CCCC1=O (stereo not drawn)", "data value": "inactive"}

---

- measured target: Estrogen receptor (Homo sapiens)
- measurement description: OT_ERa_GFPERaERE_0120: Odyssey Thera (OT) 2-hour HeLa Transcription Induction Assay for Estrogen Receptor (AID 2283382)
Calls of active or inactive are those of the source. Rule for the calls: active = hit-call score of the fitted dose curve at least 0.9, where 1 is the maximum; inconclusive = response in the unintended direction; inactive = score below 0.9.
Respond only with the outcome that fits, drawn from Y = active, N = inactive

Some entries whose results are on file:
{"compound": "CC(=O)c1ccc2ccccc2c1", "discrete label": "N"}
{"compound": "[O-]/[N+](=N\\O)c1ccccc1", "discrete label": "N"}
{"compound": "O=C(OCc1ccccc1)c1ccccc1O", "discrete label": "N"}

Could you check what this test reported for CC(=O)OC/C=C(C)/C=C/C=C(C)/C=C/C1=C(C)CCCC1(C)C ? N

Could you check what this test reported for O=C1OC2(c3ccc(O)cc3Oc3cc(O)ccc32)c2ccccc21 ? N

Could you check what this test reported for CCCc1ccc(O)cc1 ? N

---

- measurement description: ATG_NRF2_ARE_CIS: Attagene CIS-FACTORIAL HepG2 Assay for human Nuclear Factor Erythroid 2 Related Factor 2 (NFR2) response to Antioxidant Response Elements (ARE) (AID 2282992)
- condition parameters: HepG2 Attagene ARE/NRF2 reporter, transcription factor activity; actives raise or lower the signal
Active and inactive are the calls of the source. Rule for the calls: active = hit-call score of the fitted dose curve at least 0.9, where 1 is the maximum; inactive = score below 0.9.
Respond only with the outcome that fits, drawn from True = active, False = inactive

Some entries whose results are on file:
{"compound": "C=CCOCC(O)CO (centres undefined)", "discrete label": "False"}
{"compound": "CCOC(=O)CC1(C)OCC(C)O1 (centres undefined)", "discrete label": "False"}
{"compound": "CCCCCCCCCCCCS", "discrete label": "True"}

Could you check what this test reported for CCCCCCCCOS(=O)(=O)O ? False

Could you check what this test reported for CC1=CC(C)C(C=O)C(C)C1 (centres undefined) (tested in a mixture with another compound) ? False

Could you check what this test reported for CC(C)COC(=O)c1ccccc1O ? False

Could you check what this test reported for OC[C@H]1O[C@@H](O[C@H]2[C@H](O)[C@@H](O)[C@H](O)O[C@@H]2CO)[C@H](O)[C@@H](O)[C@H]1O ? False

Could you check what this test reported for O=C(O)C1=NN(c2ccc(S(=O)(=O)O)cc2)C(=O)C1 ? False

Could you check what this test reported for CCC=C(C)C=O ? False

---

- measurement description: ACEA_AR_agonist_AUC_viability: ACEA Biosciences xCELLigence Real-Time Cell Analysis on Androgen Receptor Agonism for Viability (AID 2283775)
Records with an inconclusive call do not appear. Activity calls are given as the source filed them. Rule for the calls: active = hit-call score of the fitted dose curve at least 0.9, where 1 is the maximum; inconclusive = response in the unintended direction; inactive = score below 0.9.
Respond only with the outcome that fits, drawn from active, inactive

Some entries whose results are on file:
{"molecule": "[Na+]", "discrete label": "inactive"}
{"molecule": "CCO[Si](CC)(OCC)OCC", "discrete label": "inactive"}
{"molecule": "OCC=Cc1ccccc1", "discrete label": "inactive"}
{"molecule": "COC(=O)c1cccc(C(=O)OC)c1", "discrete label": "inactive"}
{"molecule": "c1ccc(OCCOc2ccccc2)cc1", "discrete label": "inactive"}

Could you check what this test reported for CC(CCO)CC(C)(C)C (stereo unspecified) ? inactive

Could you check what this test reported for CCNC(=S)NCC ? inactive
